target: GABA-A receptor; anion channel; experiment: Inhibition of [3H]Ro-151788 binding to GABA-A central benzodiazepine receptor of bovine brain membranes
Provide the recorded Ki for the entries that follow.
Your answer should be a plain number; it is taken to be in nM.

Provide the documented Ki with GABA-A receptor; anion channel as the system for `Oc1c(-c2ccsc2)cnc2c(-c3cccc(F)c3)cnn12`
73

Next compound: `Oc1c(-c2ccsc2)cnc2c(-c3ccc(F)cc3)cnn12`
31

Then this compound: `COc1cccc(-c2cnn3c(O)c(-c4ccsc4)cnc23)c1`
42.2

Ok, now `Oc1c(-c2ccsc2)cnc2c(-c3ccccc3)cnn12`
111

Record: `Oc1c(-c2ccsc2)cnc2c(-c3ccccn3)cnn12`
3.9

The origin of these recorded values is ChEMBL document CHEMBL1145105.
